Sourced from ChEMBL document CHEMBL2401706

# Target System: Acetylcholinesterase (Electrophorus electricus)
# Sequence (O42275 whole entry): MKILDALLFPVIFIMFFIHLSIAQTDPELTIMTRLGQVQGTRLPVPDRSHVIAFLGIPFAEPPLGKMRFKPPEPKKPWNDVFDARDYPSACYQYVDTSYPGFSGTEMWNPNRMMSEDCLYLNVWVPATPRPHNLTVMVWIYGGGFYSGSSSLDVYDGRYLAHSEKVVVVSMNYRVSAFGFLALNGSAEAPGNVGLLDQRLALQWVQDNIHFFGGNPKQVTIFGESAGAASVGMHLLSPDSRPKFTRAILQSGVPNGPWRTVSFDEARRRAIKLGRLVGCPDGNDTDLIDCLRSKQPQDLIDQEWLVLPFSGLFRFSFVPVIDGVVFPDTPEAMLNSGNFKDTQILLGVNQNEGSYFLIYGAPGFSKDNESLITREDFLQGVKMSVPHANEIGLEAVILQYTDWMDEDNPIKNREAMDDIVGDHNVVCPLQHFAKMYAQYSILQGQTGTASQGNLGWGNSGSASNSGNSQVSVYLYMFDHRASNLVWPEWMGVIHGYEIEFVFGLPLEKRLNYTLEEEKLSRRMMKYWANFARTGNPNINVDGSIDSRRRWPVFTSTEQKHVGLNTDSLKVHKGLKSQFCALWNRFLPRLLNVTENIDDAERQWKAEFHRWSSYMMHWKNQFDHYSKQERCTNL
# Test Method Notes: Inhibition of electric eel AChE after 30 mins by Ellman's method
So I've got a bunch of compounds here, and I need their IC50 values.
Give bare numbers, in µM.

Recorded IC50, per entry:
{"columns": ["Compound Structure String", "Value Units", "IC50"],
 "data": [
  ["CN1C/C(=C\\c2ccc(F)cc2)C(=O)[C@]2(C1)[C@@H](c1ccc(F)cc1)[C@@H]1CCCCN1[C@@]21C(=O)c2cccc3cccc1c23", "µM", 12.6],
  ["CN1C/C(=C\\c2cccc3ccccc23)C(=O)[C@]2(C1)[C@@H](c1cccc3ccccc13)[C@@H]1CCCCN1[C@@]21C(=O)c2cccc3cccc1c23", "µM", 3.34]
]}

Now turn to the next compound.
Identify measured IC50 associated with CN1C/C(=C\c2cccc([N+](=O)[O-])c2)C(=O)[C@]2(C1)[C@@H](c1cccc([N+](=O)[O-])c1)[C@@H]1CSCN1[C@@]21C(=O)c2cccc3cccc1c23 8.1
